Tested on: MT4
protocol-details: Effective concentration required to achieve 50% protection of MT-4 cells against the cytopathic effect of HIV-1
Assay type: functional, cell-based
setup-conditions: Homo sapiens
property-name: pEC50
Scale explanation: pEC50 corresponds to minus log10 of a concentration expressed in moles per litre.

These solved cases illustrate the format of a correct answer.
| compound | pEC50 |
| --- | --- |
| CCOCn1c(Cc2cccc(N=[N+]=[N-])c2)c(CC)c(=O)[nH]c1=O | 7.96 |
| CCOCn1c(C(=O)c2cccc([N+](=O)[O-])c2)c(CC)c(=O)[nH]c1=O | 6.68 |

Exercise: Dear colleague, please send me the reported pEC50 for CCOCn1c(C(OC(C)=O)c2cccc([N+](=O)[O-])c2)c(CC)c(=O)[nH]c1=O (stereo unspecified) when you can.
Key: 4.54

Exercise: Return value of pEC50 for input CCOCn1c(Cc2cccc(N)c2)c(CC)c(=O)[nH]c1=O , no commentary.
Key: 6.85

Exercise: Quick one: give measured pEC50 for CCOCn1c(Sc2ccccc2)c(CC)c(=O)[nH]c1=O
Key: 7.74

Exercise: Answer with reported pEC50 of CCOCn1c(Cc2cccc(O)c2)c(CC)c(=O)[nH]c1=O
Key: 6.40
